- Test system: Nakaseomyces glabratus
- METHOD_NOTES: Antifungal activity against Candida glabrata 510 by microdilution method
- Assay type: functional
VALUE_KIND: MIC

Worked examples, 4 compounds total:
SMILES_INPUT | TEST_SYSTEM | RESULT
O=c1c(O)c(-c2ccc(O)c(O)c2)oc2cc(O)ccc12 | Nakaseomyces glabratus | 7.8 to 15.6 µg/mL
O=c1cc(-c2ccc(O)c(O)c2)oc2cc(O)cc(O)c12 | Nakaseomyces glabratus | 3.9 to 7.8 µg/mL
C[C@@H]1O[C@@H](Oc2c(-c3ccc(O)c(O)c3)oc3cc(O)cc(O)c3c2=O)[C@H](O)[C@H](O)[C@H]1O | Nakaseomyces glabratus | 7.8 to 62.5 µg/mL
O=c1c(O)c(-c2ccccc2)oc2cc(O)cc(O)c12 | Nakaseomyces glabratus | 15.6 to 62.5 µg/mL

Exercise: Item O=c1c(O)c(-c2ccc(O)cc2)oc2cc(O)cc(O)c12 : provide MIC
Solution: 31.2 µg/mL

Exercise: Item O=c1c(O)c(-c2ccc(O)c(O)c2)oc2cc(O)cc(O)c12 : provide MIC
Solution: 7.8 to 15.8 µg/mL

###

Each item that follows carries a reported MIC.
- Tested on: Nakaseomyces glabratus
- METHOD_NOTES: Antifungal activity against Candida glabrata 531 by microdilution method
- Format: functional

Exercise: Item O=c1cc(-c2ccccc2)oc2ccccc12 [FLAVONE] : provide MIC
Solution: 62.5 µg/mL

Exercise: Item O=c1c(O)c(-c2ccccc2)oc2ccccc12 [FLAVONOL] : provide MIC
Solution: 3.9 to 15.6 µg/mL

Exercise: Item C[C@@H]1O[C@@H](Oc2c(-c3ccc(O)c(O)c3)oc3cc(O)cc(O)c3c2=O)[C@H](O)[C@H](O)[C@H]1O [QUERCITRIN] : provide MIC
Solution: 7.8 to 62.5 µg/mL

Exercise: Item O=c1c(O)c(-c2cc(O)c(O)c(O)c2)oc2cc(O)cc(O)c12 [MYRICETIN] : provide MIC
Solution: 3.9 to 15.7 µg/mL

Exercise: Item O=c1c(O)c(-c2ccc(O)cc2)oc2cc(O)cc(O)c12 [KAEMPFEROL] : provide MIC
Solution: 31.2 µg/mL

Exercise: Item O=c1cc(-c2ccccc2)oc2cc(O)c(O)c(O)c12 [BAICALEIN] : provide MIC
Solution: 1.9 µg/mL

###

- System: Candida albicans
- METHOD_NOTES: Antifungal activity against Candida albicans 501 by microdilution method
- Assay type: functional
VALUE_KIND: MIC

Exercise: Item C[C@@H]1O[C@@H](Oc2c(-c3ccc(O)c(O)c3)oc3cc(O)cc(O)c3c2=O)[C@H](O)[C@H](O)[C@H]1O : provide MIC
Solution: > 83 µg/mL

Exercise: Item O=c1cc(-c2ccccc2)oc2ccccc12 : provide MIC
Solution: > 83 µg/mL

Exercise: Item O=c1c(O)c(-c2ccc(O)c(O)c2)oc2cc(O)ccc12 : provide MIC
Solution: > 83 µg/mL

Exercise: Item O=c1cc(-c2ccc(O)c(O)c2)oc2cc(O)cc(O)c12 : provide MIC
Solution: > 83 µg/mL

Exercise: Item O=c1c(O)c(-c2ccccc2)oc2ccccc12 : provide MIC
Solution: > 83 µg/mL

###

Each item that follows carries a reported MIC.
- Test system: Candida albicans
- METHOD_NOTES: Antifungal activity against Candida albicans
- Format: functional, organism-based
Lab book: enter the figure in µg/mL, no units written.

Worked examples, 2 molecules total:
MOLECULE | MIC (µg/mL)
O=C(/C=C/c1ccc(Cl)cc1Cl)c1ccc(/N=N/c2c(O)cccc2O)cc1 | 15
Cc1c(O)c2c(c3c1OC(C)(C)C=C3)O[C@H](c1ccc(O)c(O)c1)CC2=O | 1.96

Exercise: # assay system Candida albicans: give MIC of O=c1cc(-c2ccccc2)oc2cc(O)c(O)c(O)c12 [BAICALEIN]
Solution: 5.4

Exercise: # assay system Candida albicans: give MIC of C=CC(C)(C)c1cc([C@@H]2CC(=O)c3c(O)cc(O)c(CC=C(C)C)c3O2)c(O)cc1O
Solution: 121

###

Each item that follows carries a reported MIC.
- Tested on: Trichophyton rubrum
- METHOD_NOTES: Antifungal activity against Trichophyton rubrum after 5 days
- Type: functional
- CONDITION_PARAMETERS: 120 h

Worked examples, 2 molecules total:
SMILES_INPUT | TEST_SYSTEM | VALUE_KIND | RESULT
O=c1c(O)c(-c2ccc(O)c(O)c2)oc2cc(O)ccc12 | Trichophyton rubrum | MIC | 64 µg/mL
O=c1c(O)c(-c2cc(O)c(O)c(O)c2)oc2cc(O)cc(O)c12 | Trichophyton rubrum | MIC | 4 to 128 µg/mL

Exercise: Item COc1cc(O)cc2oc(-c3cc(O)c(O)c(O)c3)c(O)c(=O)c12 : provide MIC
Solution: 4 to 128 µg/mL

Exercise: Item O=c1c(O[C@@H]2O[C@H](CO)[C@@H](O)[C@H](O)[C@H]2O)c(-c2cc(O)c(O)c(O)c2)oc2cc(O)cc(O)c12 : provide MIC
Solution: 4 to 128 µg/mL

###

- Test system: Candida albicans
- METHOD_NOTES: Antifungal activity against Candida albicans ATCC 10231 by microdilution method
- Assay type: functional
Each item that follows carries a reported MIC.

Worked examples, 4 molecules total:
SMILES_INPUT | TEST_SYSTEM | MIC
O=c1cc(-c2ccc(O)c(O)c2)oc2cc(O)cc(O)c12 | Candida albicans | > 83 µg/mL
O=c1cc(-c2ccccc2)oc2cc(O)c(O)c(O)c12 | Candida albicans | 10.4 µg/mL
O=c1c(O)c(-c2ccccc2)oc2cc(O)cc(O)c12 | Candida albicans | > 83 µg/mL
C[C@@H]1O[C@@H](Oc2c(-c3ccc(O)c(O)c3)oc3cc(O)cc(O)c3c2=O)[C@H](O)[C@H](O)[C@H]1O | Candida albicans | > 83 µg/mL

Now let's try a different one.
Exercise: Item O=c1c(O)c(-c2cc(O)c(O)c(O)c2)oc2cc(O)cc(O)c12 : provide MIC
Solution: 16 to 64 µg/mL

###

- Test system: Candida albicans
- METHOD_NOTES: Antifungal activity against Candida albicans 498 by microdilution method
- Type: functional
VALUE_KIND: MIC

Worked examples, 5 compounds total:
SMILES_INPUT | RESULT
O=c1c(O)c(-c2ccccc2)oc2ccccc12 | > 83 µg/mL
O=c1c(O)c(-c2ccc(O)c(O)c2)oc2cc(O)ccc12 | > 83 µg/mL
O=c1cc(-c2ccccc2)oc2cc(O)c(O)c(O)c12 | 10.4 µg/mL
C[C@@H]1O[C@@H](Oc2c(-c3cc(O)c(O)c(O)c3)oc3cc(O)cc(O)c3c2=O)[C@H](O)[C@H](O)[C@H]1O | > 83 µg/mL
O=c1c(O)c(-c2ccc(O)c(O)c2)oc2cc(O)cc(O)c12 | > 83 µg/mL

Now let's try a different one.
Exercise: Item O=c1c(O)c(-c2ccc(O)cc2)oc2cc(O)cc(O)c12 : provide MIC
Solution: > 83 µg/mL

###

- Test system: Nakaseomyces glabratus
- METHOD_NOTES: Antifungal activity against Candida glabrata 510 by microdilution method
- Format: functional
VALUE_KIND: MIC (µg/mL)
Lab book: enter the figure in µg/mL, no units written.

Exercise: # assay system Nakaseomyces glabratus: give MIC of O=c1cc(-c2ccccc2)oc2cc(O)c(O)c(O)c12
Solution: 1.9

Exercise: # assay system Nakaseomyces glabratus: give MIC of O=c1cc(-c2ccccc2)oc2ccccc12
Solution: 62.5

###

- System: Nakaseomyces glabratus
- METHOD_NOTES: Antifungal activity against Candida glabrata 531 by microdilution method
- Type: functional
Each item that follows carries a reported MIC.

SMILES_INPUT | VALUE_KIND | RESULT
O=c1c(O)c(-c2ccc(O)c(O)c2)oc2cc(O)cc(O)c12 | MIC | 7.8 to 15.8 mg/L
O=c1c(O)c(-c2ccccc2)oc2cc(O)cc(O)c12 | MIC | 15.6 to 62.5 mg/L
O=c1cc(-c2ccc(O)c(O)c2)oc2cc(O)cc(O)c12 | MIC | 3.9 to 7.8 mg/L
O=c1c(O)c(-c2ccc(O)c(O)c2)oc2cc(O)ccc12 | MIC | 7.8 to 15.6 mg/L

Now let's try a different one.
Exercise: Item C[C@@H]1O[C@@H](Oc2c(-c3cc(O)c(O)c(O)c3)oc3cc(O)cc(O)c3c2=O)[C@H](O)[C@H](O)[C@H]1O : provide MIC
Solution: 3.9 to 7.8 mg/L

###

Each item that follows carries a reported MIC.
- Test system: Candida albicans
- METHOD_NOTES: Antifungal activity against Candida albicans 501 by microdilution method
- Assay type: functional

Worked examples, 3 compounds total:
SMILES_INPUT | RESULT
C[C@@H]1O[C@@H](Oc2c(-c3cc(O)c(O)c(O)c3)oc3cc(O)cc(O)c3c2=O)[C@H](O)[C@H](O)[C@H]1O | > 83 µg/mL
O=c1c(O)c(-c2cc(O)c(O)c(O)c2)oc2cc(O)cc(O)c12 | 16 to 64 µg/mL
O=c1c(O)c(-c2ccc(O)c(O)c2)oc2cc(O)cc(O)c12 | > 83 µg/mL

Exercise: Item O=c1cc(-c2ccccc2)oc2cc(O)c(O)c(O)c12 : provide MIC
Solution: 10.4 µg/mL

Exercise: Item O=c1c(O)c(-c2ccccc2)oc2cc(O)cc(O)c12 : provide MIC
Solution: > 83 µg/mL

Exercise: Item O=c1c(O)c(-c2ccc(O)cc2)oc2cc(O)cc(O)c12 : provide MIC
Solution: > 83 µg/mL
